Where these numbers come from: paper PMC12670160

Test system: M. mycetomatis strain mm55
APPLIED_CONDITIONS: primary screen, metabolic activity vs growth control; 96 h, 2 µM; inhibitor
Where a name gives a salt, the structure may show the parent alone. Hit rate of the full screen: of about 5,300 compounds, about 130 (2.5%) showed an effect of 50% or more. The entries come from a sample that favours strong results as a whole.
Flag rule - % viability less than 50% flags MET; the remaining entries get NOT MET.

Please review the entries below; each comes with its answer.
COMPOUND	DISCRETE_LABEL
CN1C2C[C@H](OC(=O)[C@H](CO)c3ccccc3)C[C@@H]1[C@@H](O)C2 [ONC0003283, anisodamine hydrobromide]	MET
C[C@]12C=CC(=O)C=C1CCC1C2[C@@H](O)C[C@@]2(C)C1CC[C@]2(O)C(=O)COP(=O)(O)O (stereo partly shown) [ONC0004116, prednisolone sodium phosphate]	NOT MET
Cc1cc(O)c(-c2ccc([C@@H](C)CN)cc2)c2c1[nH]c(=O)c1sccc12	NOT MET

Problem: Determine if `CN/C(=N/CCSCc1nc[nH]c1C)NC#N` shows % viability strictly lower than 50%.
Result: NOT MET

Problem: Is % viability strictly under 50% for the entry `Cc1ccc(OC[C@@H](O)[C@H](C)NC(C)C)c2c1CCC2` ?
Result: NOT MET

Problem: Lab note: confirm whether the reported % viability for this compound is below 50%, equality not counting. compound: `Cc1cccc(-c2[nH]c(C(C)(C)C)nc2-c2ccc3c(c2)OCO3)n1`
Result: NOT MET
